Measurement target: PfCSP full length (Plasmodium falciparum (isolate NF54), UniProt P19597)
Sequence (P19597 20-375): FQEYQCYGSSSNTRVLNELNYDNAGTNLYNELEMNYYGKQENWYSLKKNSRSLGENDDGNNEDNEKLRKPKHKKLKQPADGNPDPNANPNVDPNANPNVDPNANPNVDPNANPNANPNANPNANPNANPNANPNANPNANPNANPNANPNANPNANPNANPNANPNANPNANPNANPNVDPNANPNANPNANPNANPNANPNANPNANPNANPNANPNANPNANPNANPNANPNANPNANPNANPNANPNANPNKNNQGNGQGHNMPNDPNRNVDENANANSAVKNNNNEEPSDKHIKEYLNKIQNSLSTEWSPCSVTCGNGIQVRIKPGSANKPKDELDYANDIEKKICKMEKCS
Protocol notes: ELISA AUC
Please provide measured binding score for the entries that follow.
Lab note: jot down the number only; don't add units.

Consider CL-510433 (antibody, V domains shown, peptides N-terminally acetylated and C-terminally amidated) VH: QVQLVESGGGVVQPGRSLRLSCVASGFTFSSYGMHWVRQAPGKGLEWVAVIWYDGSNKYYADSVKGRFTVSRDNSKNTLYLQMNSLRAEDTAVYYCARVYYYGSGSYSPYYYALDVWGHGTTVTVSS VL: EIVMTQSPATLSVSPGERATLSCRASQSISSNLAWYQQKPGQAPRLLIYGASIRATGIPARFSGSGSGTEFTLSISILQSEDFAIYYCQQYNNWWTFGQGTKVEIK . Its measured binding score is 1.76

Value of measured binding score for the entry CL-531237 (antibody, V domains shown, peptides N-terminally acetylated and C-terminally amidated) VH: QVQLVESGGGVVQPGTSLRLSCVASGFTFSNFGIHWFRQAPGKGLEWVSLIWYDGKNKFYAESVTGRFTISRDNSKNTVYLQMSSLRAEDTAVYYCARSYYYDSGNYFDYWGQGTLVTVSS VL: DIQMTQSPSSVSASVGDRITITCRASQGISSRLAWFQQKPGKAPNFLIYGTSSLQSGVPSRFSGSGSGTDFTLTISSLQPEDSATYYCQQANSYPWTFGQGTKVEIK : 2.18
